# target_of_assay: Serotonin (5-HT) uptake into rat brain synaptosome (frontal cortex) (Rattus norvegicus, UniProt P31652)
# Construct: used as crude synaptosome fractions
# Sequence (P31652 whole entry): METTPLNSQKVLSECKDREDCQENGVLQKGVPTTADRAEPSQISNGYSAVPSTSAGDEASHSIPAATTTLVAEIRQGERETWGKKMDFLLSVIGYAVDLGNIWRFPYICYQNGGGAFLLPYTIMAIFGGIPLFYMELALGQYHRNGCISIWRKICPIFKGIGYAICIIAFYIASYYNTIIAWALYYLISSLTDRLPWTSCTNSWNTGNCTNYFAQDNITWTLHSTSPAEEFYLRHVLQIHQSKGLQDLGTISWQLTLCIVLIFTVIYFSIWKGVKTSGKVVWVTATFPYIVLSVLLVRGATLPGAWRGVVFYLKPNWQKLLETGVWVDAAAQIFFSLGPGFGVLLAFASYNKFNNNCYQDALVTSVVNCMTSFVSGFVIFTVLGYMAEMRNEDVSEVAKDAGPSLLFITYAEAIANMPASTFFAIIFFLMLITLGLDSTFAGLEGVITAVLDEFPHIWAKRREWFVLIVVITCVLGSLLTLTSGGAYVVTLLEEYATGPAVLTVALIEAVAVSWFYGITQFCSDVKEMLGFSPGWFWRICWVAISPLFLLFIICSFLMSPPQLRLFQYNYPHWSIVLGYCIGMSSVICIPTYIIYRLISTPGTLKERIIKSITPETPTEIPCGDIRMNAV
# test_details: Inhibitory activity on serotonin (5-HT) uptake into rat brain synaptosome
# run_conditions: tritium-labeled 5-HT 8 nM uptake, 10 min at 37° C., read-out: 50% inhibittory concentration
pIC50: −log10 of the molar value.
endpoint_name: pIC50

Study these solved cases before continuing.
| molecule | pIC50 |
| --- | --- |
| N#Cc1ccc(N(c2ccc(F)c(Cl)c2)[C@H]2CCNC2)cc1 [Example 73] | 9.22 |
| Fc1ccc(N(c2cnc3ccccc3c2)[C@H]2CCNC2)cc1Cl [Example 149] | 8.92 |
| Cc1cc(N(c2cncc(F)c2)[C@H]2CCNC2)ccc1F [Example 895] | 8.52 |

[a] Fc1ccc(N(c2ccccn2)[C@H]2CCNC2)cc1Cl [Example 154]
[b] Fc1ccc(N(C2CCCC2)[C@H]2CCNC2)cc1Cl [Example 306]
Challenge: Compare reported pIC50 values for a and b . Which is lower? # reply format: chosen label
Response given: b

[P] Fc1ccc(N(c2ccc3cnsc3c2)[C@H]2CCNC2)cc1Cl [Example 930]
[Q] Fc1cncc(N(c2ccc(F)c(Cl)c2)[C@H]2CCNC2)c1 [Example 894]
[R] c1ccc(N(c2ccc3cnsc3c2)[C@H]2CCNC2)cc1 [Example 900]
Challenge: Ascending sort, pIC50. Your task in answering is to list the labels in the requested order.
Response given: Q, R, P
(Q: 8.59, R: 8.82, P: 9.10)

[P] Fc1ccc(N(c2ccc(-c3cnco3)cc2)[C@H]2CCNC2)cc1Cl [Example 90]
[Q] CS(=O)(=O)O.CS(=O)(=O)O.Fc1ccc(N(c2cccnc2)[C@H]2CCNC2)cc1Cl [Example 7, dimethanesulfonate]
Challenge: Which shows the larger pIC50 value: P or Q ? I would appreciate it if you answered with the label of your choice.
Response given: P

[1] Cc1cc2ccc(N(c3ccccc3)[C@H]3CCNC3)cc2s1 [Example 903]
[2] CSc1ccc(N(c2ccccc2)[C@H]2CCNC2)cc1 [Example 19]
[3] Fc1ccc(N(c2ccc(Cl)c(Cl)c2)[C@H]2CCNC2)nc1 [Example 961]
Challenge: Ordering: ascending pIC50. Form field (ranking): labels in requested order.
Response given: 3, 1, 2

* * *

# target_of_assay: Dopamine (DA) uptake into rat brain synaptosome (striatum) (Rattus norvegicus, UniProt P23977)
# Construct: used as crude synaptosome fraction
# Sequence (P23977 whole entry): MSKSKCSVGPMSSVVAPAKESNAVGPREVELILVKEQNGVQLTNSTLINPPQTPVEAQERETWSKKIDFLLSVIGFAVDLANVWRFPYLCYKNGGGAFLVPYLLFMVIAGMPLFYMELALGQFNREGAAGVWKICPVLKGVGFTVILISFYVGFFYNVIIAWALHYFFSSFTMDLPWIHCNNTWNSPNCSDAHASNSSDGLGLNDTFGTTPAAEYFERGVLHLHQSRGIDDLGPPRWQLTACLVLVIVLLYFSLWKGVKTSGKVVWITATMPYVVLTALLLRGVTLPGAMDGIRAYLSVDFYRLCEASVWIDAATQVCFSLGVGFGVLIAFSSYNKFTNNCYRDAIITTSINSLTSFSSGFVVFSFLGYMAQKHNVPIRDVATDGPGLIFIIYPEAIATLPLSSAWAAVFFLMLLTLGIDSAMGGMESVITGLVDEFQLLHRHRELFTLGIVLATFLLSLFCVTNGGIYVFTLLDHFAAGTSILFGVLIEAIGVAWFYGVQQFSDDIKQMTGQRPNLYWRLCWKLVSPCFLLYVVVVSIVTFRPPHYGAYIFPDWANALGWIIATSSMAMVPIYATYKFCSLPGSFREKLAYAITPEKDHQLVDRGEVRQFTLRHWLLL
# test_details: Inhibitory activity on dopamine (DA) uptake into rat brain synaptosome
# run_conditions: tritium labeled DA 2 nM uptake, 10 min at 37° C., read-out: 50% inhibitory concentration
pIC50: −log10 of the molar value.
endpoint_name: pIC50

| smiles_record | reading |
| --- | --- |
| Clc1ccc(N(c2ccncc2)[C@H]2CCNC2)cc1Cl | 7.48 |

[a] Fc1cncc(N(c2ccc3sccc3c2)[C@H]2CCNC2)c1
[b] Fc1ccc(N(c2ccc(-c3cnco3)cc2)[C@H]2CCNC2)cc1Cl
[c] N#Cc1ccc(N(c2ccc(Cl)c(Cl)c2)[C@H]2CCNC2)cn1
Challenge: Put the entries in order of pIC50, starting with the largest number. Provide the ranking by listing each label in its place in the requested order.
Response given: b, c, a

* * *

# target_of_assay: Norepinephrine (NE) uptake into rat brain synaptosome (hippocampus) (Rattus norvegicus, UniProt Q63380)
# Construct: used as crude synaptosome fraction
# Sequence (Q63380 1-617): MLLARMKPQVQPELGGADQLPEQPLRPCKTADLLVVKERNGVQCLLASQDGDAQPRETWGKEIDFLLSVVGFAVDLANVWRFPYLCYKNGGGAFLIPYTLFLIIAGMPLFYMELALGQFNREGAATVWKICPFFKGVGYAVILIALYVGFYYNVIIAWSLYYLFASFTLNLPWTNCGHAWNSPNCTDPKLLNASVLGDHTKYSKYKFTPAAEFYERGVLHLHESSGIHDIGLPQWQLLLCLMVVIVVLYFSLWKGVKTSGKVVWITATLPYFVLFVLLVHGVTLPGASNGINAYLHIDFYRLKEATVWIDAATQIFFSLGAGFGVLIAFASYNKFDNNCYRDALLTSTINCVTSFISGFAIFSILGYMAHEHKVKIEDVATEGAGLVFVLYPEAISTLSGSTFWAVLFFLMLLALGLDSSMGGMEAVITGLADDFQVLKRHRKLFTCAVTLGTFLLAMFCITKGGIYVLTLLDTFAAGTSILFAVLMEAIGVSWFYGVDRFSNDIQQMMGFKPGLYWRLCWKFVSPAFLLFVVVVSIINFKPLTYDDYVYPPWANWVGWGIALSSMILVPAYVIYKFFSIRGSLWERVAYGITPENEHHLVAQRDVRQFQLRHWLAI
# test_details: Inhibitory activity on norepinephrine (NE) uptake into rat brain synaptosome
# run_conditions: tritium-labeled NE 12 nM uptake, 10 min at 37° C., read-out: 50% inhibitory concentration
endpoint_name: IC50 (nM)

Reference set, count: 5
| smiles_record | unit_spec | IC50 |
| --- | --- | --- |
| Fc1ccc(N(c2ccc3cnsc3c2)[C@H]2CCNC2)cc1Cl | nM | 1 |
| Fc1ccc(N(c2ccccc2)[C@H]2CCNC2)cc1 | nM | 0.8 |
| c1ccc2cc(N(c3ccsc3)[C@H]3CCNC3)ccc2c1 | nM | 0.4 |
| Fc1ccc(N(c2ccc(Cl)nc2)[C@H]2CCNC2)cc1Cl | nM | 0.5 |
| Cc1cc(N(c2cncc(F)c2)[C@H]2CCNC2)ccc1F | nM | 0.5 |

[P] CC(C)(O)CN(c1ccc(F)c(Cl)c1)[C@H]1CCNC1
[Q] Fc1ccc(N(c2ccc3ncccc3c2)[C@H]2CCNC2)cc1Cl
[R] COc1cccc(N(c2ccc(F)c(Cl)c2)[C@H]2CCNC2)n1
[S] Fc1cncc(N(c2ccc3sccc3c2)[C@H]2CCNC2)c1
[T] Fc1cncc(N(c2ccc(F)c(Cl)c2)[C@H]2CCNC2)c1
Challenge: Rank descending by IC50. Submit the labels in the order that the ranking request calls for.
Response given: Q, S, T, R, P
(Q: 0.8 nM, S: 0.5 nM, T: 0.3 nM, R: 0.2 nM, P: 0.1 nM)

* * *

# target_of_assay: Norepinephrine (NE) uptake into rat brain synaptosome (hippocampus) (Rattus norvegicus, UniProt Q63380)
# Construct: used as crude synaptosome fraction
# test_details: Inhibitory activity on norepinephrine (NE) uptake into rat brain synaptosome
# run_conditions: tritium-labeled NE 12 nM uptake, 10 min at 37° C., read-out: 50% inhibitory concentration
pIC50: −log10 of the molar value. Structures can show the parent of a compound that is named as a salt.
endpoint_name: pIC50

Solved entries (count: 2):
| molecule | pIC50 |
| --- | --- |
| c1cc(N(c2ccc3ccsc3c2)[C@H]2CCNC2)cs1 [Example 1001] | 10.00 |
| c1ccc(N(c2ccc3sccc3c2)[C@H]2CCNC2)cc1 [Example 116] | 10.00 |

[A] Clc1ccc(N(c2ccccc2)C2CCNC2)cc1Cl (stereo not drawn) [Example 1, dihydrochloride]
[B] Fc1ccc(N(c2ccc3ncsc3c2)[C@H]2CCNC2)cc1Cl [Example 989]
Challenge: Of the two listed items, A and B , which carries the larger pIC50 figure? To answer, give the label that identifies your chosen option.
Response given: B
(B: 9.52, A: 9.22)

[P] Fc1ccc(N(c2ccc(Cl)c(Cl)c2)[C@H]2CCNC2)nc1 [Example 961]
[Q] Clc1ccc(N(c2cccnc2)[C@H]2CCNC2)cc1Cl [Example 242]
[R] Fc1ccc(N(c2ccc3ccsc3c2)[C@H]2CCNC2)cc1 [Example 114]
Challenge: Provide the items ranked by increasing pIC50. Reply format: the labels, ordered as requested.
Response given: P, R, Q

* * *

Where a name gives a salt, the structure may show the parent alone.
endpoint_name: melting point

| compound | endpoint_name | reading |
| --- | --- | --- |
| Fc1ccc(N(c2nccs2)[C@H]2CCNC2)cc1Cl (as salt: fumarate) [Example 131] | melting point | 128 to 129.9 °C |
| Clc1ccc(N(c2cccnc2)[C@H]2CCNC2)cc1Cl (as salt: hydrochloride) [Example 242] | melting point | 108 to 110 °C |
| Clc1ccc(N(c2ccccn2)[C@H]2CCNC2)cc1Cl (as salt: hydrochloride) [Example 188] | melting point | 135 to 138 °C |
| N#Cc1ccc(N(c2ccc(F)c(Cl)c2)[C@H]2CCNC2)cc1 (as salt: fumarate) [Example 73] | melting point | 174 to 175 °C |
| Fc1ccc(N(c2ccccn2)[C@H]2CCNC2)cc1Cl (as salt: fumarate) [Example 154] | melting point | 152.4 to 154.4 °C |

Challenge: # lookup: melting point of Fc1ccc(N(c2ccc3cnsc3c2)[C@H]2CCNC2)cc1Cl (as salt: hydrochloride) [Example 930]
Response given: 150 to 156 °C

Challenge: Ok, now Fc1ccc(N(c2ccsc2)[C@H]2CCNC2)cc1Cl (as salt: fumarate) [Example 278]
Response given: 135 to 136 °C

Challenge: Param item: CSc1ccc(N(c2ccccc2)[C@H]2CCNC2)cc1 (as salt: fumarate) [Example 19]
Response given: 152.9 to 155.5 °C

* * *

Structures can show the parent of a compound that is named as a salt.
endpoint_name: melting point

Below, each entry is followed by its recorded melting point result.
| compound | reading |
| --- | --- |
| Fc1cccc(N(c2ccc(C(F)(F)F)cc2)[C@H]2CCNC2)c1.O=C(O)/C=C/C(=O)O.O=C(O)/C=C/C(=O)O | 144 to 146.2 °C |
| Clc1ccc(N(c2ccncc2)[C@H]2CCNC2)cc1Cl (as salt: salt) | 229 to 231 °C |
| c1ccc(N(c2ccc3sccc3n2)[C@H]2CCNC2)cc1 (as salt: hydrochloride) | 241.5 to 243.5 °C |
| CS(=O)(=O)O.CS(=O)(=O)O.Fc1ccc(N(c2cccnc2)[C@H]2CCNC2)cc1Cl | 194 to 195 °C |
| Clc1ccc(N(c2cnccn2)[C@H]2CCNC2)cc1Cl (as salt: hydrochloride) | 120 to 124 °C |

Below: the item to evaluate.
Challenge: What value of measured melting point is listed for CCN1CCN(c2ccc(N(c3ccc(F)c(Cl)c3)[C@H]3CCNC3)nc2)CC1 (as salt: hydrochloride) ?
Response given: 208 to 211 °C
